MIC listing for selected compounds.
- System: Bif. adolescentis
- assay info: MIC against human gut microbiota
- Format: cell-based, Bifidobacterium adolescentis
- condition notes: Bifidobacterium adolescentis; Bif. adolescentis HM- 633, BHIS broth, anaerobic; read-out: minimum inhibitory concentration (MIC)
Structures can show the parent of a compound that is named as a salt.
property label: MIC

compound | assay target | result
COc1cc2c(cc1O)CCN[C@]21CS[C@@H]2c3c(OC(C)=O)c(C)c4c(c3[C@H](COC1=O)N1[C@@H]2[C@H]2c3c(cc(C)c(OC)c3O)C[C@@H]([C@@H]1C#N)N2C)OCO4 [ET-770, ecteinascidin 770] | Bif. adolescentis | ≤ 2 µg/mL
N=C(N/N=C/c1ccc(Cl)cc1)N/N=C/c1ccc(Cl)cc1 [Robenidine hydrochloride] | Bif. adolescentis | ≤ 2 µg/mL
CCc1c(Cl)c(O)c(Cl)c(O)c1C(=O)O[C@H]1[C@H](O)[C@H](OC)[C@H](OC/C2=C\C=C\C[C@H](O)/C(C)=C/[C@H](CC)[C@@H](O[C@@H]3OC(C)(C)[C@@H](OC(=O)C(C)C)[C@H](O)[C@@H]3O)/C(C)=C/C(C)=C/C[C@@H]([C@@H](C)O)OC2=O)O[C@@H]1C [Fidaxomicin] | Bif. adolescentis | ≤ 2 µg/mL
CCCCc1oc2ccc(NS(C)(=O)=O)cc2c1C(=O)c1ccc(OCCCN(CCCC)CCCC)cc1 [Dronedarone] | Bif. adolescentis | 8 µg/mL
COC(=O)N/N=C/c1c[n+]([O-])c2ccccc2[n+]1[O-] [Carbadox] | Bif. adolescentis | 4 µg/mL
Oc1c(Br)cc(Br)c2cccnc12 [Broxyquinoline] | Bif. adolescentis | 64 µg/mL
Cc1ccc2c(Cl)cc(Cl)c(O)c2n1 [Chlorquinaldol] | Bif. adolescentis | 32 µg/mL

The measured values listed here are drawn from paper PMC11288027.
